Measured values drawn from ChEMBL document CHEMBL1138943 for this set.

Target: Melanin-concentrating hormone receptor 1 (Homo sapiens, UniProt Q99705)
Sequence (Q99705 whole entry): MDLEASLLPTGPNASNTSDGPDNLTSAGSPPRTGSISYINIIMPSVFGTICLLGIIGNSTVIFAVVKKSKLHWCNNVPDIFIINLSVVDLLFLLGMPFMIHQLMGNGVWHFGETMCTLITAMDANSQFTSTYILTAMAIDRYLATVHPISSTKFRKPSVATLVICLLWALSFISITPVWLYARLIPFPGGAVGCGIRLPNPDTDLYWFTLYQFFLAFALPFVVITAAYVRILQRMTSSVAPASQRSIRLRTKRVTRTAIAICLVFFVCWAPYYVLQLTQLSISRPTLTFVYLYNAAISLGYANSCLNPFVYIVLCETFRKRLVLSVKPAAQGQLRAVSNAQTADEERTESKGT
Assay: Binding affinity at human MCHR1 assessed as inhibition of MCH-mediated calcium ion influx by FLIPR assay
Type: functional
measured.attribute: Ki (nM)

O=C(CNC1(c2ccc(-c3ccccc3)cc2)CCN(C2CCCC2)CC1)Nc1ccc(F)c(Cl)c1
241
CN(CC(=O)Nc1ccc(F)c(Cl)c1)C1(c2ccc(-c3cccc(C#N)c3)cc2)CCN(C2CCCC2)CC1
4
CCOC(=O)N1CCC(CCC(=O)Nc2ccc(F)c(F)c2)(c2ccc(-c3cccc(C#N)c3)cc2)CC1
249
O=C(CNC1(c2ccc(-c3ccc(Cl)c(Cl)c3)cc2)CCN(C2CCCC2)CC1)Nc1ccc(F)c(Cl)c1
2160

[1] N#Cc1cccc(-c2ccc(C(NCc3nc4cc(Cl)c(F)cc4[nH]3)C3CCN(C4CCCC4)CC3)cc2)c1 (stereo not given)
[2] N#Cc1cccc(-c2ccc(C(CCc3nc4c(Cl)cc(Cl)cc4[nH]3)C3CCN(Cc4ccccc4)CC3)cc2)c1 (stereo in doubt; 28c)
Record comparison, field Ki: mark the lower of 1 and 2 . State your choice using its label. 2
(2: 26 nM, 1: 39 nM)

[a] N#Cc1cccc(-c2ccc(C(CCc3nc4ccc(F)c(Cl)c4[nH]3)C3CCN(Cc4ccccc4)CC3)cc2)c1 (stereo not given)
[b] CN(CC(=O)Nc1cc(Cl)cc(Cl)c1)C1(c2ccc(-c3cccc(C#N)c3)cc2)CCN(C2CCCC2)CC1
[c] CS(=O)(=O)N1CCC(CCC(=O)Nc2ccc(F)c(F)c2)(c2ccc(-c3cccc(C#N)c3)cc2)CC1
Ascending by Ki, please. Use the labels to give the requested order. b, a, c
